System: HCC-2998 colon
test description: NCI tumour cell line growth inhibition, 48 h; in the data active = GI50 below about 0.43 µM; inactive = the rest
Choose one outcome from this list and give only that: active, inactive

Please state the recorded outcome for this compound: O=C(CCCSc1nc(-c2ccccc2)cc(-c2ccccc2)n1)NO
inactive

Please state the recorded outcome for this compound: COCCOc1ccc(-c2nc3ccc(-c4nc5ccc(N6CCN(C)CC6)cc5[nH]4)cc3[nH]2)cc1
inactive

Please state the recorded outcome for this compound: COc1ccc(CCN=C2NC(=O)/C(=C/c3ccc4ncccc4c3)S2)cc1
inactive

Please state the recorded outcome for this compound: Nc1ccccc1SC(CC(=O)c1ccccc1)c1cccc([N+](=O)[O-])c1 (stereo not given)
inactive

Please state the recorded outcome for this compound: COC[C@H]1Cn2cc(-c3nc(Nc4ccnn4C)ncc3C)nc2C(=O)N1Cc1ccc(F)c(F)c1
active

Please state the recorded outcome for this compound: C=C1C(=O)O[C@H]2[C@H]1CC/C(COC(=O)NCc1ccc(Cn3c(=O)sn(-c4ccc(OC)cc4)c3=O)cc1)=C\CC[C@@]1(C)O[C@@H]21
inactive

Please state the recorded outcome for this compound: Nc1cc(NN=C(c2ccc(O)cc2)c2ccc(O)cc2)c([N+](=O)[O-])cc1[N+](=O)[O-]
inactive

Please state the recorded outcome for this compound: O=C(Oc1ccc(Cl)cc1)c1ccccc1Nc1ccnc(C(F)(F)F)c1
inactive

Please state the recorded outcome for this compound: CCN1C(=O)N(c2ccccc2)C2NC(=S)N(/N=C/C=C/c3ccccc3OC)C21 (stereo not given)
active

Please state the recorded outcome for this compound: CCCOc1cc2ccccc2cc1C(=O)Nc1nc(N)c2c(ccc3nccc32)[nH]1
active

Please state the recorded outcome for this compound: Cc1ccc(-n2c3nc(=O)[nH]c(=O)c-3cc3cc([N+](=O)[O-])ccc32)cc1
inactive

Please state the recorded outcome for this compound: Cn1ccc2c3c(Oc4ccc(NC(N)=O)cc4)ccnc3ccc21
inactive

Please state the recorded outcome for this compound: CCC(=C/[C@H](C)C/C=C/C(C)=C/[C@@H](C)C(=O)[C@@H](C)[C@H](O)[C@@H](C)CC)/C=C/[C@H]1OC(=O)C=C[C@@H]1C
active

Please state the recorded outcome for this compound: CCCCCCCCCCn1cc[n+](C)c1
inactive

Please state the recorded outcome for this compound: COc1ccc(CN2C(=O)/C(=C\c3cc(OC)c(OC)c(OC)c3)c3ccccc32)cc1
inactive

Reference for the values: PubChem BioAssay (NCI)
